study system: UniProtKB P41587
Sequence (P41587 whole entry, the tested form may be a part): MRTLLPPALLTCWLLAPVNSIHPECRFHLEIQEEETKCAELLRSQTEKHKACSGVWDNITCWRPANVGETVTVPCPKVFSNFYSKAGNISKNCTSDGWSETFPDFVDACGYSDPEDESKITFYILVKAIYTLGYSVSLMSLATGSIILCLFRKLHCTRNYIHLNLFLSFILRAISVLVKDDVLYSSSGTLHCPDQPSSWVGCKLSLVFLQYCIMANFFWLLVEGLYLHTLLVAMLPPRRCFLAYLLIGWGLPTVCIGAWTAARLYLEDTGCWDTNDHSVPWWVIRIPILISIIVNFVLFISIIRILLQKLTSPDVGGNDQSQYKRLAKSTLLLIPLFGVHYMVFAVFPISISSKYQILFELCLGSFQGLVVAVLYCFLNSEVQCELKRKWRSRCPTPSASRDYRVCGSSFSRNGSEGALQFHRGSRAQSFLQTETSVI
assay notes: Antagonist activity at recombinant human N-terminal signal peptide/FLAG epitope-tagged Rluc8-fused VIPR2 expressed in HEK293 cells assessed as inhibition of VIP-induced human mVenus-beta-arrestin2 binding preincubated for 5 mins with luciferin, coelenterazine H followed by VIP addition measured after 5 mins by BRET assay
Assay type: cell-based
Provide the recorded pIC50 for the entries that follow.
Answers are plain numbers, as −log10 of the molar value.

Example cases with answers are listed next.
compound string: CCCCNC(=O)[C@@H](Cc1ccccc1)C[C@H](O)CNS(=O)(=O)c1ccc([N+](=O)[O-])cc1
value reported: 2.74
//
compound string: CO[C@@H]1Cc2ccccc2[C@@H]1NC(=O)[C@H](Cc1ccccc1)C[C@H](O)CNS(=O)(=O)c1ccc(Cl)cc1
value reported: 5.40
//
compound string: CO[C@@H]1Cc2ccccc2[C@@H]1NC(=O)[C@H](Cc1ccccc1)C[C@H](O)CNS(=O)(=O)c1ccc(C(C)=O)cc1
value reported: 5.30

Q: Query (molecule): "CO[C@H]1Cc2ccccc2[C@@H]1NC(=O)[C@H](Cc1ccccc1)C[C@H](O)CNS(=O)(=O)c1ccc2c(c1)OCCO2" ; field requested: pIC50
Result: 5.22

Data origin: ChEMBL document CHEMBL3879914
